Biological target: human vasopressin V2 receptor subtype (Homo sapiens, UniProt P30518)
Construct: host or cells: CHO cells, pZeoSV vector
Sequence (P30518 whole entry): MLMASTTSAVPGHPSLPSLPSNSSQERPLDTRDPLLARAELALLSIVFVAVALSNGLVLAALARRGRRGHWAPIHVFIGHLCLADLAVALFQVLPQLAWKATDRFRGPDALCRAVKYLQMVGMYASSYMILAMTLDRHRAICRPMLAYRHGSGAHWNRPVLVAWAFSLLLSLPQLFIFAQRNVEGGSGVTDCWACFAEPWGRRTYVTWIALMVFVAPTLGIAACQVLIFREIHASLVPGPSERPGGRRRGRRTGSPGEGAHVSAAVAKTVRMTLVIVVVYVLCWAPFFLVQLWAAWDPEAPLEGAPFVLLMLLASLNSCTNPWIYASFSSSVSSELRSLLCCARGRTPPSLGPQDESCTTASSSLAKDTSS
Assay: Vasopressin binding in CHO cell membranes expressing human vasopressin V2 subtype receptors ([3H]arginine vasopressin radioligand binding)
Conditions: @ 100 nM
Source text: Vasopressin Binding in Chinese Hamster Ovary Cell Membranes Expressing Human Vasopressin V2 Subtype Receptors Chinese Hamster Ovary (CHO) cells stably transfected with the human V2 subtype receptors were obtained from M. Thibonnier, Case Western Reserve University School of Medicine, Cleveland, Ohio. A. Passaging and Amplification of Cells […]
OBSERVABLE: inhibition at 0.1 µM (%)
Answers are plain numbers, in %.

Below, each entry is followed by its recorded inhibition at 0.1 µM result.
COc1cccc(-c2ccc(C(=O)N3Cc4ccc(C(=O)N5CCN(CCO)CC5)n4Cc4ccccc43)cc2C)c1 = 13
COc1cccc(-c2cc(OC)c(C(=O)N3Cc4ccc(C(=O)N5CCN(CCO)CC5)n4Cc4ccccc43)cc2Cl)c1 = 21
COc1cc2c(cc1OC)N(C(=O)c1ccc(-c3ccccc3C(F)(F)F)c(C)c1)Cc1ccc(C(=O)N(C)CC(O)CO)n1C2 (centres unmarked) = -5
COc1cc(C(=O)N2Cc3ccc(C(=O)N4CCN(CCO)CC4)n3Cc3ccccc32)ccc1-n1c(C)ccc1C = 3
Cc1ccccc1-c1ccc(C(=O)N2Cc3ccc(C(=O)N4CCN(CCO)CC4)n3Cc3ccccc32)cc1 = 9

Could I get inhibition at 0.1 µM for every one of these entries?
1. Cc1ccccc1-c1ccc(C(=O)N2Cc3ccc(C(=O)N4CCN(CCO)CC4)n3Cc3ccccc32)cc1C
2. COc1cc2c(cc1OC)N(C(=O)c1ccc(-c3ccccc3OC)c(C)c1)Cc1ccc(C(=O)N(C)C[C@H](O)[C@@H](O)[C@H](O)[C@H](O)CO)n1C2
3. COc1ccccc1-c1ccc(C(=O)N2Cc3ccc(C(=O)N(C)C[C@@H](O)CO)n3Cc3ccccc32)cc1C (single isomer, unassigned)

Result:
1: 14; 2: 7; 3: 51
